Listing: IC50 of selected compounds
- system: human SLC6A19 and TMEM27 (Homo sapiens)
- Construct: expressed in transfected cells
- assay name: Radiolabelled (3H) leucine uptake in CHO cells with doxycycline-inducible expression of human SLC6A19 and TMEM27 (Example B-1)
- Format: cell-based
- run conditions: CHO cells with doxycycline-inducible expression of human SLC6A19 and TMEM27, read-out: SLC6A19_Radioligand Uptake Assay IC50
readout kind: IC50 (nM)

> print(dat)
                                   compound  experimental.result
1  CC(=O)NCc1cc2cc(Cl)c(OCCOCC(F)F)cc2[nH]1                 1010
2  Cc1cc(COc2cc3[nH]c(CNC(=O)C(C)C#N)cc3cc2Cl)on1 (single isomer, unassigned) [Compound 446]                  221
3  CC1(C(=O)NCc2cc3cc(Cl)c(OCc4sncc4Cl)cc3[nH]2)CC1                 3730
4  O=C(NCc1cc2cc(OC(F)(F)F)c(OCc3ccon3)cc2[nH]1)N1CCCC1                  355

----------
- system: human SLC6A19 and TMEM27 (Homo sapiens, UniProt Q695T7)
- Construct: expressed in transfected cells
- Sequence (Q695T7 1-634): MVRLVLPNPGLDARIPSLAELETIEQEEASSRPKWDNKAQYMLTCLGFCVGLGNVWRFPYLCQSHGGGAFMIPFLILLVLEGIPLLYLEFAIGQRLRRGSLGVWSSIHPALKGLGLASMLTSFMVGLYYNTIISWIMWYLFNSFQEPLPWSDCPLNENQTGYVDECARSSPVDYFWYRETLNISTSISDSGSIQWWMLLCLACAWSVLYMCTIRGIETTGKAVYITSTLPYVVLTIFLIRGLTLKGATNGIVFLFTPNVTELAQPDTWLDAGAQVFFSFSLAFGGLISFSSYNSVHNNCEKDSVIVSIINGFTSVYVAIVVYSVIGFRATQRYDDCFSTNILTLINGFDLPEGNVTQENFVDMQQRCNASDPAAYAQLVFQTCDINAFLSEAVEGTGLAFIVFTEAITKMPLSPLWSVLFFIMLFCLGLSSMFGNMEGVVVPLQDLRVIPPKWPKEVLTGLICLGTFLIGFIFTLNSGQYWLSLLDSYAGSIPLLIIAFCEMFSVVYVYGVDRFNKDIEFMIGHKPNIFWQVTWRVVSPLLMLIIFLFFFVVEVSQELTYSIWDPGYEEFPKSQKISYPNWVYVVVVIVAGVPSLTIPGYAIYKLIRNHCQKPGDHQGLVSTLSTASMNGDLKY
- Sequence (Q9HBJ8 15-222 partner): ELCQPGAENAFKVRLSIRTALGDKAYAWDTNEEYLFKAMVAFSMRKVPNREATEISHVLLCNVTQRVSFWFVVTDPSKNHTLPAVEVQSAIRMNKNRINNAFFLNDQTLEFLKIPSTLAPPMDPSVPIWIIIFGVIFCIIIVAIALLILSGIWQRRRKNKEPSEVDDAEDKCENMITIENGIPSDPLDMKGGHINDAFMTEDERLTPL
- assay name: Radiolabelled (3H) leucine uptake in CHO cells with doxycycline-inducible expression of human SLC6A19 and TMEM27 (Example B-1)
- Assay type: cell-based
- run conditions: CHO cells with doxycycline-inducible expression of human SLC6A19 and TMEM27, read-out: SLC6A19_Radioligand Uptake Assay IC50
pIC50: −log10 of the molar value.
Listing: pIC50 of selected compounds
readout kind: pIC50

> print(dat)
                                   compound  readout.kind  experimental.result
1    CC(=O)NCc1cc2c(F)cc(OCc3ccon3)cc2[nH]1         pIC50                 6.07
2  Cc1cc(COc2cc3[nH]c(CNC(=O)C(C)C)cc3cc2Cl)no1         pIC50                 7.07
3  Cc1nc(COc2cc3[nH]c(CNC(=O)N4CCC4)cc3cc2Cl)co1         pIC50                 6.32
4  O=C(NCc1cc2cc(Cl)c(OCc3cscn3)cc2[nH]1)C1CCCO1 (centres unmarked)         pIC50                 6.38
5  CC1(C(=O)NCc2cc3cc(CC#N)c(OCc4cscn4)cc3[nH]2)CC1         pIC50                 6.20
